Sourced from paper PMC9316761

target: hCA IX (Homo sapiens, UniProt Q16790); construct: made in house; assay: stopped flow CO2 hydrase assay, hCA IX; format: biochemical; settings: mean from 3 assays, errors ±5–10%; 6 h preincubation
Outcome measure: Ki (nM)

Molecule | Ki, nM
N#Cc1ccc(NC(=S)NNC(=O)COc2ccc3ccc(=O)oc3c2)cc1 [Compound 23b] | 437

[A] CSc1ccc(NC(=S)NNC(=O)COc2ccc3oc(=O)ccc3c2)cc1 [Compound 22a]
[B] O=C(COc1ccc2oc(=O)ccc2c1)NNC(=S)Nc1cccc(I)c1 [Compound 19a]
[ask] Of A and B , which carries the smaller reported Ki figure? Write down the label attached to your selection.
[reply] B

[A] O=C(COc1ccc2oc(=O)ccc2c1)NNC(=S)Nc1cccc([N+](=O)[O-])c1 [Compound 21a]
[B] O=C(COc1ccc2oc(=O)ccc2c1)NNC(=S)Nc1ccc(Cl)cc1 [Compound 16a]
[C] O=C(COc1ccc2ccc(=O)oc2c1)NNC(=S)Nc1cccc([N+](=O)[O-])c1 [Compound 21b]
[D] O=C(COc1ccc2ccc(=O)oc2c1)NNC(=S)Nc1ccc(I)cc1 [Compound 18b]
[ask] # rank by Ki, ascending (min first) Give your ranking as a list of the labels in the requested order.
[reply] C, B, A, D
(C: 9.1 nM, B: 48 nM, A: 71 nM, D: 721 nM)

[1] O=C(COc1ccc2ccc(=O)oc2c1)NNC(=S)Nc1ccccc1 [Compound 14b]
[2] O=C(COc1ccc2ccc(=O)oc2c1)NNC(=S)Nc1ccc(C(F)(F)F)cc1 [Compound 20b]
[ask] Returns: the label, 1 or 2 , whose recorded Ki is the lower number. Provide the label of your selected option as the answer.
[reply] 1

###

target: hCA I (Homo sapiens); construct: made in house; experiment: stopped flow CO2 hydrase assay, hCA I; type: biochemical; conditions: mean from 3 assays, errors ±5–10%; 6 h preincubation
Sequence (P00915 whole entry): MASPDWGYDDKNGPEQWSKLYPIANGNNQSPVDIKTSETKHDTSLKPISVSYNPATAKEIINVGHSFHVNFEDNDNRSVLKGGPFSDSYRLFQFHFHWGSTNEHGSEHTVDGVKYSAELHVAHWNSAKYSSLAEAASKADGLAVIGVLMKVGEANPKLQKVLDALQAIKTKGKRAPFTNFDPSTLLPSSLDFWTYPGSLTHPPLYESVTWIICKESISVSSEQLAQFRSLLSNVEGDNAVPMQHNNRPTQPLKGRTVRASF
Outcome measure: Ki

Compound | System under test | Ki
O=C(COc1ccc2ccc(=O)oc2c1)NNC(=S)Nc1ccccc1 [Compound 14b] | hCA I (Homo sapiens) | > 10000 nM
CSc1ccc(NC(=S)NNC(=O)COc2ccc3oc(=O)ccc3c2)cc1 [Compound 22a] | hCA I (Homo sapiens) | > 10000 nM
O=C(COc1ccc2ccc(=O)oc2c1)NNC(=S)Nc1ccc(C(F)(F)F)cc1 [Compound 20b] | hCA I (Homo sapiens) | > 10000 nM
O=C(COc1ccc2ccc(=O)oc2c1)NNC(=S)Nc1cccc(I)c1 [Compound 19b] | hCA I (Homo sapiens) | > 10000 nM
Cc1ccc(NC(=S)NNC(=O)COc2ccc3oc(=O)ccc3c2)cc1 [Compound 15a] | hCA I (Homo sapiens) | > 10000 nM

[ask] Look at this compound and give its reported Ki. O=C(COc1ccc2oc(=O)ccc2c1)NNC(=S)Nc1ccc(I)cc1 [Compound 18a]
[reply] > 10000 nM

[ask] Same question, O=C(COc1ccc2oc(=O)ccc2c1)NNC(=S)Nc1cccc(I)c1 [Compound 19a] this time
[reply] > 10000 nM

[ask] Same lookup for Cc1ccc(NC(=S)NNC(=O)COc2ccc3ccc(=O)oc3c2)cc1 [Compound 15b] , please.
[reply] > 10000 nM

[ask] # iterate: CSc1ccc(NC(=S)NNC(=O)COc2ccc3ccc(=O)oc3c2)cc1 [Compound 22b]
[reply] > 10000 nM

[ask] What about this compound? O=C(COc1ccc2oc(=O)ccc2c1)NNC(=S)Nc1ccc(Cl)cc1 [Compound 16a]
[reply] > 10000 nM

[ask] Try this compound too: O=C(COc1ccc2ccc(=O)oc2c1)NNC(=S)Nc1ccc(I)cc1 [Compound 18b]
[reply] > 10000 nM
